Sourced from ChEMBL document CHEMBL3988442

# Tested on: Trypanosoma cruzi
# experiment description: Trypanosoma cruzi phosphomannomutase and mannose-1-phosphate guanylyltransferase assay
# Format: functional
# Design: scale not given: direction of the effect not stated beside the values
# particulars: 10 µM
measured endpoint: Percent Effect
Show the value, then the unit it is measured in.

As a guide, the following entries are already answered.
compound: Cc1cc(C2CCCN(C(=O)CN3CCN(C)CC3)C2)n[nH]1 (stereo unspecified)
measured endpoint: Percent Effect
value: 2.32%
--
compound: O=C(NCc1ccco1)[C@H]1C[C@H]2OCC[C@H]2N(S(=O)(=O)C2CC2)C1
measured endpoint: Percent Effect
value: -2.7%
--
compound: O=C(NCC(=O)N1CCCCC1)c1ccc(Cl)cc1I
measured endpoint: Percent Effect
value: 8.49%

In plain terms, CSc1ccc(CNC(c2ccccc2)c2nccn2C)cc1 (stereo unspecified) has a documented Percent Effect of 7.71%

compound Cc1ccc(C(=O)N2CCc3c(CNS(C)(=O)=O)cncc3C2)o1 , Percent Effect observed: -6.37%

For record CC(C(N)=O)S(=O)(=O)Cc1cc(Cl)c2c(c1)OCO2 (stereo unspecified) the listed Percent Effect is -3.83%

Per the records, this compound ( Cc1ccc(C(=O)N2CCN(CCCSCC#N)CC2)o1 ) has Percent Effect equal to 1.98%

Consider c1cnn(CC2CCCN2c2ncnc3sccc23)c1 (stereo unspecified) . Its measured Percent Effect is -2.14%
